System: HGC-27 (Gastric Carcinoma)
Assay: combination Emax (second highest fraction inhibited in the dose matrix, 72 h); higher = more inhibition; extreme values may be limits of the assay
measure name: combination Emax
Please respond with just the number, no unit label.

Here are 3 compounds together with their reported answers.
Cc1c2c(nn1C)CSCc1cc(n(C)n1)CSc1cc(c3ccccc3c1)OCCCc1c(C(=O)O)n(C)c3c-2c(Cl)ccc13 [AZD5991] + Cc1cc2ncnn2cc1Nc1ncc2c(n1)n(C1CCOCC1)c(=O)n2C [AZD7648] (first compound max 1 µM, 7x7, partner max 10 µM)	0.603
NC1(C(=O)N[C@@H](CCO)c2ccc(Cl)cc2)CCN(c2ncnc3[nH]ccc23)CC1 [Capivasertib] + COc1nnc2ccc(N3CCC(c4ccc(OCCN5CCN(C)C(=O)[C@H]5C)cc4)CC3)nn12 [AZD5153] (first compound max 10 µM, 7x7, partner max 1 µM)	0.972
COc1cccc2c1C(=O)c1c(O)c3c(c(O)c1C2=O)C[C@@](O)(C(=O)CO)C[C@@H]3O[C@H]1C[C@H](N)[C@H](O)[C@H](C)O1 [Doxorubicin] + Cc1cc2ncnn2cc1Nc1ncc2c(n1)n(C1CCOCC1)c(=O)n2C [AZD7648] (first compound max 1 µM, 7x7, partner max 10 µM)	0.928

Input line: Please give measured combination Emax of the following entry: Cc1c2c(nn1C)CSCc1cc(n(C)n1)CSc1cc(c3ccccc3c1)OCCCc1c(C(=O)O)n(C)c3c-2c(Cl)ccc13 [AZD5991] + CN(C)CCCOc1ccc(-c2ccc3ncc4c(c3c2)n(C2CCOCC2)c(=O)n4C)cn1 [AZD0156] (first compound max 1 µM, 7x7, partner max 1 µM)
Output line: 0.51

Input line: Please give measured combination Emax of the following entry: CC(=O)c1c(C)c2cnc(Nc3ccc(N4CCNCC4)cn3)nc2n(C2CCCC2)c1=O [Palbociclib] + CN(CC[C@H](CSC1=CC=CC=C1)NC2=C(C=C(C=C2)S(=O)(=O)NC(=O)C3=CC=C(C=C3)N4CCC(CC4)[C@H](C5=CC=CC=C5C6=CC=C(C=C6)Cl)O)S(=O)(=O)C(F)(F)F)CCO [AZD4320] (first compound max 10 µM, 7x7, partner max 1 µM)
Output line: 0.764

Input line: Please give measured combination Emax of the following entry: CC1(C)CCC(CN2CCN(c3ccc(C(=O)NS(=O)(=O)c4ccc(NCC5CCOCC5)c([N+](=O)[O-])c4)c(Oc4cnc5[nH]ccc5c4)c3)CC2)=C(c2ccc(Cl)cc2)C1 [Venetoclax] + C[C@@H](Nc1cc(F)cc(F)c1)c1cc(C(=O)N(C)C)cc2c(=O)cc(N3CCOCC3)oc12 [AZD8186] (first compound max 1 µM, 7x7, partner max 3 µM)
Output line: 0.54

Input line: Please give measured combination Emax of the following entry: C=CCn1c(=O)c2cnc(Nc3ccc(N4CCN(C)CC4)cc3)nc2n1-c1cccc(C(C)(C)O)n1 [AZD1775] + C[C@@H]1COCCN1C2=NC(=NC(=C2)C3(CC3)[S@](=N)(=O)C)C4=C5C=CNC5=NC=C4 [AZD6738] (first compound max 1 µM, partner max 10 µM)
Output line: 0.966

----------
Test system: LU-65 (Non-Small Cell Lung Carcinoma)
Assay: Bliss excess, mean over the matrix (fraction); higher = more synergy
measure name: Bliss excess

CN(CCO)CC[C@H](CSc1ccccc1)Nc1ccc(S(=O)(=O)NC(=O)c2ccc(N3CCC([C@@H](O)c4ccccc4-c4ccc(Cl)cc4)CC3)cc2)cc1S(=O)(=O)C(F)(F)F [AZD4320] + C1CN(CCC1(C(=O)N[C@@H](CCO)C2=CC=C(C=C2)Cl)N)C3=NC=NC4=C3C=CN4 [Capivasertib] (first compound max 1 µM, 7x7, partner max 3 µM)	-0.0108
CN(C)CCCOc1ccc(-c2ccc3ncc4c(c3c2)n(C2CCOCC2)c(=O)n4C)cn1 [AZD0156] + C[C@@H]1COCCN1C2=NC(=NC(=C2)C3(CC3)[S@](=N)(=O)C)C4=C5C=CNC5=NC=C4 [AZD6738] (first compound max 1 µM, 7x7, partner max 10 µM)	0.021
C[C@@H](Oc1cc(-c2cnn(C3CCNCC3)c2)cnc1N)c1c(Cl)ccc(F)c1Cl [Crizotinib] + CC1=C(C(=CC=C1)Cl)NC(=O)C2=CN=C(S2)NC3=CC(=NC(=N3)C)N4CCN(CC4)CCO [Dasatinib] (first compound max 10 µM, 7x7, partner max 2 µM)	-0.0973
Cc1cc2ncnn2cc1Nc1ncc2c(n1)n(C1CCOCC1)c(=O)n2C [AZD7648] + C[C@@H]1COCCN1C2=NC(=NC(=C2)C3(CC3)[S@](=N)(=O)C)C4=C5C=CNC5=NC=C4 [AZD6738] (first compound max 10 µM, 7x7, partner max 10 µM)	-0.0392
COc1cccc(OCCCN)c1-c1cc(Nc2cnc(C#N)cn2)n[nH]1 [Prexasertib] + C=CCn1c(=O)c2cnc(Nc3ccc(N4CCN(C)CC4)cc3)nc2n1-c1cccc(C(C)(C)O)n1 [AZD1775] (first compound max 1 µM, partner max 1 µM)	0.0474

Input line: Please look at C=CCn1c(=O)c2cnc(Nc3ccc(N4CCN(C)CC4)cc3)nc2n1-c1cccc(C(C)(C)O)n1 [AZD1775] + C1CN(CCC1(C(=O)N[C@@H](CCO)C2=CC=C(C=C2)Cl)N)C3=NC=NC4=C3C=CN4 [Capivasertib] (first compound max 3 µM, partner max 3 µM) and tell me its recorded Bliss excess on LU-65 (Non-Small Cell Lung Carcinoma).
Output line: -0.0688

Input line: Please look at COc1nnc2ccc(N3CCC(c4ccc(OCCN5CCN(C)C(=O)[C@H]5C)cc4)CC3)nn12 [AZD5153] + Cc1c2c(nn1C)CSCc1cc(n(C)n1)CSc1cc(c3ccccc3c1)OCCCc1c(C(=O)O)n(C)c3c-2c(Cl)ccc13 [AZD5991] (first compound max 1 µM, 7x7, partner max 1 µM) and tell me its recorded Bliss excess on LU-65 (Non-Small Cell Lung Carcinoma).
Output line: -0.0445

----------
System: Ca9-22 (Head and Neck Carcinoma)
Assay: Bliss excess, mean over the matrix (fraction); higher = more synergy
Item-by-item account of Bliss excess
Please respond with just the number, no unit label.

Here are 10 compounds together with their reported answers.
Cc1c2c(nn1C)CSCc1cc(n(C)n1)CSc1cc(c3ccccc3c1)OCCCc1c(C(=O)O)n(C)c3c-2c(Cl)ccc13 [AZD5991] + C[C@@H](Nc1cc(F)cc(F)c1)c1cc(C(=O)N(C)C)cc2c(=O)cc(N3CCOCC3)oc12 [AZD8186] (first compound max 1 µM, 7x7, partner max 3 µM)	-0.012
NC1(C(=O)N[C@@H](CCO)c2ccc(Cl)cc2)CCN(c2ncnc3[nH]ccc23)CC1 [Capivasertib] + COc1nnc2ccc(N3CCC(c4ccc(OCCN5CCN(C)C(=O)[C@H]5C)cc4)CC3)nn12 [AZD5153] (first compound max 10 µM, 7x7, partner max 1 µM)	-0.0073
CN(CCO)CC[C@H](CSc1ccccc1)Nc1ccc(S(=O)(=O)NC(=O)c2ccc(N3CCC([C@@H](O)c4ccccc4-c4ccc(Cl)cc4)CC3)cc2)cc1S(=O)(=O)C(F)(F)F [AZD4320] + Cc1cc2ncnn2cc1Nc1ncc2c(n1)n(C1CCOCC1)c(=O)n2C [AZD7648] (first compound max 1 µM, 7x7, partner max 10 µM)	-0.0039
NC1(C(=O)N[C@@H](CCO)c2ccc(Cl)cc2)CCN(c2ncnc3[nH]ccc23)CC1 [Capivasertib] + Cn1cnc2c(F)c(Nc3ccc(Br)cc3Cl)c(C(=O)NOCCO)cc21 [Selumetinib] (first compound max 10 µM, 7x7, partner max 10 µM)	-0.0383
COc1cc2ncnc(Nc3ccc(F)c(Cl)c3)c2cc1OCCCN1CCOCC1 [Gefitinib] + CC(C)n1c(=O)n(C)c2cnc3cc(F)c(-c4ccc(OCCCN5CCCCC5)nc4)cc3c21 [AZD1390] (first compound max 10 µM, 7x7, partner max 0.3 µM)	0.0579
Cc1c2c(nn1C)CSCc1cc(n(C)n1)CSc1cc(c3ccccc3c1)OCCCc1c(C(=O)O)n(C)c3c-2c(Cl)ccc13 [AZD5991] + CCN(CCO)CCCOc1ccc2c(Nc3cc(CC(=O)Nc4cccc(F)c4)[nH]n3)ncnc2c1 [AZD2811] (first compound max 1 µM, 7x7, partner max 1 µM)	0.0626
Cc1c2c(nn1C)CSCc1cc(n(C)n1)CSc1cc(c3ccccc3c1)OCCCc1c(C(=O)O)n(C)c3c-2c(Cl)ccc13 [AZD5991] + CC(=O)O[C@H]1C(=O)[C@@]2(C)[C@H]([C@H](OC(=O)c3ccccc3)[C@]3(O)C[C@H](OC(=O)[C@H](O)[C@@H](NC(=O)c4ccccc4)c4ccccc4)C(C)=C1C3(C)C)[C@]1(OC(C)=O)CO[C@@H]1C[C@@H]2O [Paclitaxel] (first compound max 1 µM, 7x7, partner max 3 µM)	0.0065
CN(CCO)CC[C@H](CSc1ccccc1)Nc1ccc(S(=O)(=O)NC(=O)c2ccc(N3CCC([C@@H](O)c4ccccc4-c4ccc(Cl)cc4)CC3)cc2)cc1S(=O)(=O)C(F)(F)F [AZD4320] + CC(=O)O[C@H]1C(=O)[C@@]2(C)[C@H]([C@H](OC(=O)c3ccccc3)[C@]3(O)C[C@H](OC(=O)[C@H](O)[C@@H](NC(=O)c4ccccc4)c4ccccc4)C(C)=C1C3(C)C)[C@]1(OC(C)=O)CO[C@@H]1C[C@@H]2O [Paclitaxel] (first compound max 1 µM, 7x7, partner max 3 µM)	0.037
CCN(CCO)CCCOc1ccc2c(Nc3cc(CC(=O)Nc4cccc(F)c4)[nH]n3)ncnc2c1 [AZD2811] + C=CCn1c(=O)c2cnc(Nc3ccc(N4CCN(C)CC4)cc3)nc2n1-c1cccc(C(C)(C)O)n1 [AZD1775] (first compound max 1 µM, partner max 1 µM)	0.027
COc1cccc(OCCCN)c1-c1cc(Nc2cnc(C#N)cn2)n[nH]1 [Prexasertib] + O=C(c1cc(Cc2n[nH]c(=O)c3ccccc23)ccc1F)N1CCN(C(=O)C2CC2)CC1 [Olaparib] (first compound max 1 µM, 7x7, partner max 10 µM)	-0.007

Input line: Please look at CC1(C)CCC(CN2CCN(c3ccc(C(=O)NS(=O)(=O)c4ccc(NCC5CCOCC5)c([N+](=O)[O-])c4)c(Oc4cnc5[nH]ccc5c4)c3)CC2)=C(c2ccc(Cl)cc2)C1 [Venetoclax] + Cc1cc2ncnn2cc1Nc1ncc2c(n1)n(C1CCOCC1)c(=O)n2C [AZD7648] (first compound max 1 µM, 7x7, partner max 10 µM) and tell me its recorded Bliss excess on Ca9-22 (Head and Neck Carcinoma).
Output line: -0.0241

Input line: Please look at Cn1cnc2c(F)c(Nc3ccc(Br)cc3Cl)c(C(=O)NOCCO)cc21 [Selumetinib] + C[C@@H]1COCCN1C2=NC(=NC(=C2)C3(CC3)[S@](=N)(=O)C)C4=C5C=CNC5=NC=C4 [AZD6738] (first compound max 10 µM, 7x7, partner max 10 µM) and tell me its recorded Bliss excess on Ca9-22 (Head and Neck Carcinoma).
Output line: -0.0197
